Reported growth values follow for various compounds
system: SF-268 CNS; test: NCI-60 one-dose screen, 48 h (100 = growth as untreated, 0 = no growth, -100 = all killed); conditions: 10 µM
About 83,000 compounds went through this panel and 20% of them were active in at least one assay; those are over-represented in the sample as a whole.

{"Smiles Entry": "CC#C[C@]1(O)CC[C@H]2[C@@H]3CCC4=CC(=O)CCC4=C3[C@@H](c3ccc4c(c3)OCO4)C[C@@]21C", "Target Of Assay": "SF-268 CNS", "growth [%]": 71.3}
{"Smiles Entry": "CC(C)(C)c1cc(NC(=O)Cc2ccc(-c3cnc4cc(-c5cnn(CCN6CCOCC6)c5)ccc4n3)cc2)no1", "Target Of Assay": "SF-268 CNS", "growth [%]": 19.9}
{"Smiles Entry": "O=C(O)c1sccc1O", "Target Of Assay": "SF-268 CNS", "growth [%]": 71.6}
{"Smiles Entry": "CC1(C)OB(c2ccc(Cn3cc(F)c(=O)[nH]c3=O)cc2)OC1(C)C", "Target Of Assay": "SF-268 CNS", "growth [%]": 94.7}
{"Smiles Entry": "CNC(=O)c1cc(Oc2ccc(CC(=O)Nc3cc(C(C)(C)C)nn3C)cc2)ccn1", "Target Of Assay": "SF-268 CNS", "growth [%]": 70.9}

###

tested on: K-562 leukemia; experiment: NCI-60 one-dose screen, 48 h (100 = growth as untreated, 0 = no growth, -100 = all killed); details: 10 µM unless noted
The panel holds about 83,000 compounds, 20% with a hit somewhere; the sample as a whole holds those more often. Calls of active or inactive are those of the source. How the source made its calls: active means growth percent below 10; inactive means the rest.
Reported growth values follow for various compounds

{"Compound": "S=C1SCN(Cc2ccccc2)CN1Cc1ccccc1", "growth": "46.4% (inactive)"}
{"Compound": "CCc1c(CC(=O)O)c2cc(C)ccc2n1Cc1ccc(Cl)cc1", "growth": "152% (inactive)"}
{"Compound": "O=C(N/N=C/c1ccc2c(c1)OCO2)c1ccncc1", "growth": "106% (inactive)"}
{"Compound": "CCOC(=O)Nc1ccc2c(c1)/C(=N\\NC(N)=S)c1ccccc1-2", "growth": "33.9% (inactive)"}
{"Compound": "COc1ccc2ccccc2c1/C=N/N1CCCCC1", "growth": "91.5% (inactive)"}
{"Compound": "Nc1ccccc1SC1CC(=O)N(c2cccc3ccccc23)C1=O (stereo unspecified)", "growth": "90.2% (inactive)"}

###

tested on: HOP-62 NSCLC; test: NCI-60 one-dose screen, 48 h (100 = growth as untreated, 0 = no growth, -100 = all killed); settings: 10 µM unless noted
This is part of a sample that, as a whole, favours compounds with a hit. Of some 83,000 tested, about 20% had one in any assay.
# if measured growth < 90%: Condition met  # else: Condition not met

{"Compound": "CC1(c2ccc3ccccc3c2)CCC(=O)O1 (stereo unspecified)", "Target Of Assay": "HOP-62 NSCLC", "Cat": "Condition not met"}
{"Compound": "O=C(O)CSCc1nc2ccccc2[nH]1", "Target Of Assay": "HOP-62 NSCLC", "Cat": "Condition not met"}
{"Compound": "O=C(Cc1cccc2ccccc12)N/N=C/c1ccc2c(c1)CCC2", "Target Of Assay": "HOP-62 NSCLC", "Cat": "Condition met"}
{"Compound": "N#C/C(=C/c1c(O)ccc2ccccc12)C(N)=O", "Target Of Assay": "HOP-62 NSCLC", "Cat": "Condition met"}
{"Compound": "NC(=S)NS(=O)(=O)c1ccc(N)cc1", "Target Of Assay": "HOP-62 NSCLC", "Cat": "Condition not met"}
